Origin of values: the supplement of paper PMC4862054

Tested on: Hs578T
Assay: normalised viability (% of control), CellTiter-Blue; higher = more viable cells (100 = DMSO, 0 = benzethonium chloride kill control)
Conditions: 1 nM; incubation time: 72 h
Overview of reported normalised viability across a group of compounds:

{"smiles str": "O=C(O)C1(C(=O)O)CCC1.[NH2-].[NH2-].[Pt+2]", "result units": "%", "normalised viability": 125}
{"smiles str": "Nc1nc2[nH]cc(CCc3ccc(C(=O)N[C@@H](CCC(=O)O)C(=O)O)cc3)c2c(=O)[nH]1", "result units": "%", "normalised viability": 114}
{"smiles str": "Oc1ncc(N(CCCl)CCCl)c(O)n1", "result units": "%", "normalised viability": 109}
{"smiles str": "CC[C@H](Nc1ncnc2[nH]cnc12)c1nc2cccc(F)c2c(=O)n1-c1ccccc1", "result units": "%", "normalised viability": 118}
{"smiles str": "Cc1ccc(-c2cc(C(F)(F)F)nn2-c2ccc(S(N)(=O)=O)cc2)cc1", "result units": "%", "normalised viability": 111}

###

The molecules listed here are annotated with their EC50, CellTiter-Blue viability.
Test system: Hs578T
Conditions: 72 h

{"molecule": "CCN(CC)CCCC(C)Nc1c2ccc(Cl)cc2nc2ccc(OC)cc12 (centres undefined)", "EC50, CellTiter-Blue viability [µM]": 1.98}
{"molecule": "C=CC(=O)Nc1cc2c(Nc3ccc(F)c(Cl)c3)ncnc2cc1OCCCN1CCOCC1", "EC50, CellTiter-Blue viability [µM]": 3.7}
{"molecule": "Nc1ccccc1NC(=O)c1ccc(CNC(=O)OCc2cccnc2)cc1", "EC50, CellTiter-Blue viability [µM]": 5.88}
{"molecule": "Cc1cnc(NC(=O)Nc2cc(Br)c(C)cc2OC[C@@H]2CNCCO2)cn1", "EC50, CellTiter-Blue viability [µM]": 0.745}

###

System: BT-549
Assay: normalised response (% of control), CellTiter-Glo; higher = more viable cells (100 = DMSO, 0 = benzethonium chloride kill control)
Conditions: incubation time: 72 h

{"molecule": "CCN(CC)CCCC(C)Nc1c2ccc(Cl)cc2nc2ccc(OC)cc12 (centres undefined) [Mepacrine] (50000 nM)", "result units": "%", "normalised response": 106}
{"molecule": "CCCS(=O)(=O)Nc1ccc(F)c(C(=O)c2c[nH]c3ncc(-c4ccc(Cl)cc4)cc23)c1F [Vemurafenib] (10000 nM)", "result units": "%", "normalised response": 71.8}
{"molecule": "C=CC(=O)N1CCC[C@@H](n2nc(-c3ccc(Oc4ccccc4)cc3)c3c(N)ncnc32)C1 [Ibrutinib] (1000 nM)", "result units": "%", "normalised response": 110}
{"molecule": "COc1cc2c(NC3CCN(C(C)C)CC3)nc(C3CCCCC3)nc2cc1OCCCN1CCCC1 [UNC0638] (10000 nM)", "result units": "%", "normalised response": 1.52}

###

System: BT-474
Experiment: drug sensitivity score (DSS), CellTox Green (DSS (AUC-based score)); higher = stronger drug effect (viability inhibition or cytotoxicity); extreme values may be limits of the assay
Conditions: incubation time: 72 h
value type: drug sensitivity score

{"compound": "Nc1ccccc1NC(=O)c1ccc(CNC(=O)OCc2cccnc2)cc1", "observed measurement": 0}
{"compound": "C=CC(=O)Nc1cc2c(Nc3ccc(F)c(Cl)c3)ncnc2cc1OCCCN1CCOCC1", "observed measurement": 3.65}
{"compound": "O=C(Cc1ccc(-c2ccc(OCCN3CCOCC3)cc2)cn1)NCc1ccccc1", "observed measurement": 3.97}
{"compound": "O=C(O)C1(C(=O)O)CCC1.[NH2-].[NH2-].[Pt+2]", "observed measurement": 0}
{"compound": "COc1cc2nccc(Oc3ccc(NC(=O)Nc4cc(C)on4)c(Cl)c3)c2cc1OC", "observed measurement": 0}
{"compound": "O=C(O)CCCCC(CCSCc1ccccc1)SCc1ccccc1 (stereo unspecified)", "observed measurement": 0}
{"compound": "CC1=C(/C=C/C(C)=C/C=C/C(C)=C/C(=O)O)C(C)(C)CCC1", "observed measurement": 0.87}
{"compound": "Nc1nc2[nH]cc(CCc3ccc(C(=O)N[C@@H](CCC(=O)O)C(=O)O)cc3)c2c(=O)[nH]1", "observed measurement": 0}
{"compound": "CCN(CC)CCCC(C)Nc1c2ccc(Cl)cc2nc2ccc(OC)cc12 (stereo unspecified)", "observed measurement": 0}
{"compound": "C=CC(=O)N1CCC[C@@H](n2nc(-c3ccc(Oc4ccccc4)cc3)c3c(N)ncnc32)C1", "observed measurement": 2.25}
{"compound": "Oc1ncc(N(CCCl)CCCl)c(O)n1", "observed measurement": 0}

###

Test system: DU-4475
Experiment: normalised viability (% of control), CellTiter-Blue; higher = more viable cells (about 100 = DMSO control)
Conditions: 1000 nM; incubation time: 72 h

{"smiles str": "O=C(Cc1ccc(-c2ccc(OCCN3CCOCC3)cc2)cn1)NCc1ccccc1", "assay system": "DU-4475", "normalised viability [%]": 9.93}
{"smiles str": "Cc1ccc(-c2cc(C(F)(F)F)nn2-c2ccc(S(N)(=O)=O)cc2)cc1", "assay system": "DU-4475", "normalised viability [%]": 110}
{"smiles str": "CC[C@H](Nc1ncnc2[nH]cnc12)c1nc2cccc(F)c2c(=O)n1-c1ccccc1", "assay system": "DU-4475", "normalised viability [%]": 87.8}
{"smiles str": "Nc1ccccc1NC(=O)c1ccc(CNC(=O)OCc2cccnc2)cc1", "assay system": "DU-4475", "normalised viability [%]": 121}
{"smiles str": "Nc1nc2[nH]cc(CCc3ccc(C(=O)N[C@@H](CCC(=O)O)C(=O)O)cc3)c2c(=O)[nH]1", "assay system": "DU-4475", "normalised viability [%]": 93.9}

###

System: BT-474
Assay: normalised viability (% of control), CellTiter-Blue; higher = more viable cells (about 100 = DMSO control)
Conditions: 100 nM; incubation time: 72 h
value type: normalised viability

{"molecule": "COc1cc([C@@H]2c3cc4c(cc3[C@@H](O[C@@H]3O[C@@H]5CO[C@@H](c6cccs6)O[C@H]5[C@H](O)[C@H]3O)[C@H]3COC(=O)[C@H]23)OCO4)cc(OC)c1O [Teniposide]", "observed measurement": "105%"}
{"molecule": "Nc1nc2[nH]cc(CCc3ccc(C(=O)N[C@@H](CCC(=O)O)C(=O)O)cc3)c2c(=O)[nH]1 [Pemetrexed]", "observed measurement": "125%"}
{"molecule": "COc1cc2nccc(Oc3ccc(NC(=O)Nc4cc(C)on4)c(Cl)c3)c2cc1OC [Tivozanib]", "observed measurement": "112%"}

###

Tested on: CAL-85-1
Test: normalised viability (% of control), CellTiter-Blue; higher = more viable cells (about 100 = DMSO control)
Conditions: 30 nM; incubation time: 72 h

{"smiles str": "CC[C@H](Nc1ncnc2[nH]cnc12)c1nc2cccc(F)c2c(=O)n1-c1ccccc1", "result units": "%", "normalised viability": 75.9}
{"smiles str": "Nc1ccccc1NC(=O)c1ccc(CNC(=O)OCc2cccnc2)cc1", "result units": "%", "normalised viability": 100}
{"smiles str": "COc1cc2nccc(Oc3ccc(NC(=O)Nc4cc(C)on4)c(Cl)c3)c2cc1OC", "result units": "%", "normalised viability": 107}
{"smiles str": "Oc1ncc(N(CCCl)CCCl)c(O)n1", "result units": "%", "normalised viability": 94.2}
{"smiles str": "C=CC(=O)Nc1cc2c(Nc3ccc(F)c(Cl)c3)ncnc2cc1OCCCN1CCOCC1", "result units": "%", "normalised viability": 67}

###

System: HDQ-P1
Experiment: normalised viability (% of control), CellTiter-Blue; higher = more viable cells (about 100 = DMSO control)
Conditions: 300 nM; incubation time: 72 h
Reported normalised viability values follow for various compounds
value type: normalised viability (%)

{"smiles str": "O=C(O)C(=O)O.[NH-][C@@H]1CCCC[C@H]1[NH-].[Pt+2]", "value type": "normalised viability", "observed measurement": 78.4}
{"smiles str": "Nc1nc2[nH]cc(CCc3ccc(C(=O)N[C@@H](CCC(=O)O)C(=O)O)cc3)c2c(=O)[nH]1", "value type": "normalised viability", "observed measurement": 83.7}
{"smiles str": "N#Cc1ccc(C(c2ccc(C#N)cc2)n2cncn2)cc1", "value type": "normalised viability", "observed measurement": 69.4}
{"smiles str": "NCCCNCCSP(=O)(O)O", "value type": "normalised viability", "observed measurement": 63.9}

###

# maps each entry to its normalised response
Test system: BT-549
Test: normalised response (% of control), CellTiter-Glo; higher = more viable cells (100 = DMSO, 0 = benzethonium chloride kill control)
Settings: incubation time: 72 h
value type: normalised response (%)

{"molecule": "Nc1ccccc1NC(=O)c1ccc(CNC(=O)OCc2cccnc2)cc1 [Entinostat] (100 nM)", "assay system": "BT-549", "value type": "normalised response", "result units": "%", "observed measurement": 115}
{"molecule": "CCCCC(=O)OCC(=O)[C@]1(O)Cc2c(O)c3c(c(O)c2[C@@H](O[C@H]2C[C@H](NC(=O)C(F)(F)F)[C@H](O)[C@H](C)O2)C1)C(=O)c1c(OC)cccc1C3=O [Valrubicin] (50 nM)", "assay system": "BT-549", "value type": "normalised response", "result units": "%", "observed measurement": 86.2}
{"molecule": "CCN(CC)CCCC(C)Nc1c2ccc(Cl)cc2nc2ccc(OC)cc12 (centres undefined) [Mepacrine] (500 nM)", "assay system": "BT-549", "value type": "normalised response", "result units": "%", "observed measurement": 113}
{"molecule": "CNC(=O)c1cc(Oc2ccc(NC(=O)Nc3cc(C(C)(C)C)nn3-c3ccc4ncccc4c3)c(F)c2)ccn1 [Rebastinib] (10 nM)", "assay system": "BT-549", "value type": "normalised response", "result units": "%", "observed measurement": 109}
{"molecule": "Nc1nc2[nH]cc(CCc3ccc(C(=O)N[C@@H](CCC(=O)O)C(=O)O)cc3)c2c(=O)[nH]1 [Pemetrexed] (100 nM)", "assay system": "BT-549", "value type": "normalised response", "result units": "%", "observed measurement": 104}
{"molecule": "C=CCc1cccc(/C=N/NC(=O)CN2CCN(Cc3ccccc3)CC2)c1O [PAC-1] (100 nM)", "assay system": "BT-549", "value type": "normalised response", "result units": "%", "observed measurement": 104}
{"molecule": "C=CC(=O)Nc1cc2c(Nc3ccc(F)c(Cl)c3)ncnc2cc1OCCCN1CCOCC1 [Canertinib] (100 nM)", "assay system": "BT-549", "value type": "normalised response", "result units": "%", "observed measurement": 93.9}
{"molecule": "CC(=O)Nc1cccc(-n2c(=O)n(C3CC3)c(=O)c3c(Nc4ccc(I)cc4F)n(C)c(=O)c(C)c32)c1 [Trametinib] (2.5 nM)", "assay system": "BT-549", "value type": "normalised response", "result units": "%", "observed measurement": 100}
{"molecule": "CC[C@H](C)C(=O)O[C@H]1C[C@H](O)C=C2C=C[C@H](C)[C@H](CC[C@@H](O)C[C@@H](O)CC(=O)O)[C@H]21 [Pravastatin] (100 nM)", "assay system": "BT-549", "value type": "normalised response", "result units": "%", "observed measurement": 101}
